test system: biotinyl-Phe-oxazolone; assay: self-aminoacylation, catalytic enhancement (BFO) (fold over background); higher = more active; k-Seq, kA / k0A0; sequences stand for … in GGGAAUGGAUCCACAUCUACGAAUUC…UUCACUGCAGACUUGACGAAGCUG
Variants at the floor of the assay were thinned out.
Short version: self-aminoacylation at least 1 is fulfilled, less is not fulfilled.

Worked cases, answers included:
AUUUUCCUGGUCAUCGAGUGA [Fam2.1 aminoacylation ribozyme variant]	fulfilled
CCACACUUCAAUCAAACGGUC [Fam1B.1 aminoacylation ribozyme variant]	not fulfilled
AAGUUUGCUACUAGUCGGAAG [Fam3.1 aminoacylation ribozyme variant]	not fulfilled
AUGUUUGCUAAUAGUCGCUAG [Fam3.1 aminoacylation ribozyme variant]	fulfilled
ACUCACCUAGGUCAUCGAGUG [Fam2.2 aminoacylation ribozyme variant]	fulfilled

Query block: Does self-aminoacylation meet or surpass 1 for AUAGACCUAGGUCAUCGGGUG [Fam2.2 aminoacylation ribozyme variant] ?
Result block: fulfilled

Query block: Quick one: AAGUUUGCUAAUCGUCGGAAG [Fam3.1 aminoacylation ribozyme variant]
Result block: fulfilled

Query block: Another sequence: AUUCAUCUAGGUCAUAGGGUG [Fam2.2 aminoacylation ribozyme variant]
Result block: fulfilled

Query block: Param item: AAGUUUGCUGAUAGCCGCAAG [Fam3.1 aminoacylation ribozyme variant]
Result block: fulfilled

----------
Give measured self-aminoacylation for each item. Keep answers brief.
tested on: biotinyl-Ile-oxazolone; assay: self-aminoacylation, catalytic enhancement (BIO) (fold over background); higher = more active; k-Seq, kA / k0A0; sequences stand for … in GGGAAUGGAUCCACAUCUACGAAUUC…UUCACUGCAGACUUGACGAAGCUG
This sample holds only a part of the variants without activity.
One number for each entry.

Guide cases for self-aminoacylation, answers given:
CCACAAGUCAAGCAAUCGGUC [Fam1B.1 aminoacylation ribozyme variant]	1.64
CUACAUAAAACAAUCGGUCUG [Fam1A.1 aminoacylation ribozyme variant]	0.808
AUUAUACUGGUCAUCGAGUGA [Fam2.1 aminoacylation ribozyme variant]	2.91
AUUAACCUGGUCAUCGAGUUA [Fam2.1 aminoacylation ribozyme variant]	1
AAGUCUGCUAAUAGUCCCAAG [Fam3.1 aminoacylation ribozyme variant]	0.928
AUUACCCUGGUGAUCGAGUGG [Fam2.1 aminoacylation ribozyme variant]	1.11
AAGUUUGCUAAUAGCCGCCAG [Fam3.1 aminoacylation ribozyme variant]	1.52
GUUACCCGGGUCAUCGAGUGA [Fam2.1 aminoacylation ribozyme variant]	4.5

Query block: Would you mind telling me what self-aminoacylation value was observed for AUUACCAUGGUCAUCGAGUGG [Fam2.1 aminoacylation ribozyme variant] ?
Result block: 1.72

----------
tested on: biotinyl-Ile-oxazolone; experiment: self-aminoacylation, catalytic enhancement (BIO) (fold over background); higher = more active; k-Seq, kA / k0A0; sequences stand for … in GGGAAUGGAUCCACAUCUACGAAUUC…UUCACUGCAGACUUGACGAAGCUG
Variants at the floor of the assay were thinned out.
self-aminoacylation below 2 gives Criterion not met; self-aminoacylation at or above it gives Criterion met.

AUUACCGUGGUCAUCGAGUUA [Fam2.1 aminoacylation ribozyme variant]	Criterion not met
AUUACCCUGGUCAUCGCGUGG [Fam2.1 aminoacylation ribozyme variant]	Criterion met
ACUCACCUAGGUCCUCGGGUG [Fam2.2 aminoacylation ribozyme variant]	Criterion met
CUAUUUAAAACAAUCGGUCUG [Fam1A.1 aminoacylation ribozyme variant]	Criterion not met
UCACACUUCAAGCAAUCGGUG [Fam1B.1 aminoacylation ribozyme variant]	Criterion met
AAGCUAGCUAAUAGUCGCAAG [Fam3.1 aminoacylation ribozyme variant]	Criterion met
CUACUUUAAACAAUCGGCCUG [Fam1A.1 aminoacylation ribozyme variant]	Criterion not met

Query block: Is self-aminoacylation at least 2? Consider CUACUUCUAUCAAUCGGUCUG [Fam1A.1 aminoacylation ribozyme variant]
Result block: Criterion not met

Cited source for all entries: the supplement of paper PMC9233669
